Recorded values, source PubChem BioAssay AID1159580.

experiment: chemical genetic growth profiling, strain panel (AID 1159580);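 also: tested at 20 µM; growth read once vehicle control cultures reached saturation at 30 °C; 1 = growth at the plate median or of vehicle wells; lower values mean less growth of the strain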; details: S. cerevisiae deletion strains, growth OD, locus YPL153C, strain RAD53
Among all 5,500 compounds or so, about 2,000 (36%) were called active. Roughly 18% stayed inconclusive and do not appear here. Rule as the data show it: active = normalized growth mostly below about 0.91 (no sharp cut-off); inconclusive = no clear call, values can overlap the other calls; inactive = mostly above about 0.92. The list shows a part of the results.
Output constraint: value belongs to 1 (active), -1 (inactive)

Data request: For CC1SC(c2cccnc2)N(c2ccc(F)cc2F)C1=O (centres undefined) , what call appears in the results of this test?
Data returned: -1

Data request: Record lookup: outcome of this test for O=[N+]([O-])c1ccc(Sc2ccccc2)cc1O ?
Data returned: -1

Data request: Record lookup: outcome of this test for COc1cc(C2CC(=S)Nc3ccccc3S2)cc(OC)c1OC (centres undefined) ?
Data returned: -1

Data request: Please let me know the test result on file for Cc1ccc2nc3c(nc2c1)-c1ccccc1C3=O .
Data returned: 1

Data request: I would be grateful if you could indicate the recorded call for Cc1cc(N=Cc2cc(Cl)cc(Cl)c2O)no1 .
Data returned: 1

Data request: Per the assay record, what outcome was assigned to CCOC(=O)c1ccc(N=Cc2cc(Cl)cc(Cl)c2O)cc1 ?
Data returned: 1

Data request: What is the recorded call for this compound in the test? O=C(NCc1ccc2c(c1)OCO2)c1cc2ccccc2s1
Data returned: 1

Data request: What outcome does the record of this test show for CC1SC(c2cccnc2)N(c2ccc(Cl)cc2)C1=O (centres undefined) ?
Data returned: 1

Data request: What classification did CCOC(=O)C(O)(c1ccc(NC(=O)c2ccc(Cl)c(Cl)c2)cc1)C(F)(F)F (centres undefined) end up with in this test?
Data returned: -1

Data request: Please indicate how the test categorized Cc1oc(C(C)(C)C)cc1-c1cc(NC(=O)c2ccccc2)n[nH]1 .
Data returned: -1

Data request: What is the recorded call for this compound in the test? O=C(Nc1cc(Cl)cc(Cl)c1)c1cc(Br)ccc1O
Data returned: -1

Data request: Record request — test call for CCOC(=O)C(NC(=O)c1cccc(Cl)c1)(Nc1nc2ccccc2s1)C(F)(F)F (centres undefined)
Data returned: -1

Data request: Check the results log: what was the call for O=[N+]([O-])c1ccc(Sc2ccccc2)c([N+](=O)[O-])c1 ?
Data returned: -1

Data request: # fetch the recorded call for COc1ccc(OC)c2nc3c(nc12)C(=O)c1ccccc1-3 here
Data returned: -1
